Here, each record is paired with measured inhibition data.
- Study target: Hexose transporter 1 (Plasmodium falciparum) (UniProt O97467)
- Test details: ST_JUDE_LEISH: Cytotoxicity at 2uM final concentration against transgenic Leishmania Mexicana promastigotes LmPfHT that are glucose transport deficient and complemented with the Plasmodium falciparum hexose transporter. Activity is measured by DNA content using SYBR green in vitro
- Format: functional
Assay readout: inhibition

[
  {
    "Compound": "CS(=O)(=O)Nc1cccc(-c2cnc3[nH]cc(-c4cccc(CN)c4)c3c2)c1",
    "Val": "3.29%"
  },
  {
    "Compound": "Cc1cc(O)c(-c2ccc(OCc3ccc(Cl)cc3)cc2)c(C)n1",
    "Val": "0.22%"
  },
  {
    "Compound": "CC(C(=O)OCCOCn1cnc2c(=O)[nH]c(N)nc21)N(C)C(=O)OC(C)(C)C (stereo not drawn)",
    "Val": "-1.51%"
  },
  {
    "Compound": "O=C(/C=C/c1ccc(Cl)c(Cl)c1)NCCCCCN1CCC(NC(=O)Nc2cc(Cl)nc(Cl)c2)CC1",
    "Val": "-0.18%"
  },
  {
    "Compound": "Oc1cc(Nc2ccnc3cc(-c4ccc(CN5CCCCC5)o4)ccc23)c(Cl)cc1F",
    "Val": "6.46%"
  },
  {
    "Compound": "CN(C)CCN(C)Cc1cccc(-c2cccc(NC(=O)c3cccc(C#N)c3)c2)c1",
    "Val": "2.86%"
  },
  {
    "Compound": "O=C(Nc1ccc(OC2CCN(Cc3ccc(F)cc3)CC2)cc1)c1cccs1",
    "Val": "0.37%"
  },
  {
    "Compound": "Cc1cc(N2CCCC2)nc(Nc2ccc(NC(=O)c3cccc(F)c3)cc2)n1",
    "Val": "14.7%"
  },
  {
    "Compound": "CC(C)(C)c1ccc(NC(=O)c2cccc(CN3CCCN(Cc4cccc(C#N)c4)CC3)c2)cc1",
    "Val": "1.26%"
  },
  {
    "Compound": "CCN(CC)CCNC(=O)c1ccc(Nc2ncc([N+](=O)[O-])c(Nc3ccccc3OC)n2)cc1",
    "Val": "4.91%"
  },
  {
    "Compound": "COc1ccc2nccc([C@@H](O)CN3CCC(NCCOc4ccccc4C#N)CC3)c2c1",
    "Val": "2.43%"
  },
  {
    "Compound": "CCCN(CC1CC1)c1ncc(-c2ccccc2CNCc2ccccc2O)cn1",
    "Val": "8.72%"
  },
  {
    "Compound": "CCCNCc1ccc(-c2ccc(CN(CCOC)C(=O)[C@H]3CCCO3)cc2)nc1",
    "Val": "4.55%"
  },
  {
    "Compound": "CC(CN1CCN(C)CC1)C(=O)Nc1ccc(-c2cccc(-c3nc4cc(F)ccc4[nH]3)c2)cc1 (stereo not drawn)",
    "Val": "2.1%"
  },
  {
    "Compound": "COc1ccc(-c2ccc(NC(=O)c3ccc(C#N)cc3)cc2)cc1CN1CCC(O)CC1",
    "Val": "-0.59%"
  },
  {
    "Compound": "COc1ccc(N2C(N)=NC(N)=NC2(C)C)cc1",
    "Val": "3.07%"
  },
  {
    "Compound": "CC(=O)Nc1nc(C(=O)Nc2cccc(-c3ccc4c(cnn4CC4CC4)c3)c2)cs1",
    "Val": "1.84%"
  },
  {
    "Compound": "N#Cc1cccc(NC(=O)Nc2cccc(-c3cccc(-c4nc5cc(C(F)(F)F)ccc5[nH]4)c3)c2)c1",
    "Val": "1.85%"
  },
  {
    "Compound": "N#Cc1cccc(NC(=O)Nc2ccc(CC(=O)N3CCc4cc(Cl)c(N5CCN(C/C=C/c6ccccc6)CC5)cc43)cc2)c1",
    "Val": "4.39%"
  },
  {
    "Compound": "CC(C)N1CCN(C(CN2CCN(CCCOc3cccc4ccccc34)CC2)c2ccc(F)cc2)CC1 (stereo not drawn)",
    "Val": "0.92%"
  },
  {
    "Compound": "Cc1sc2ccc(Cl)cc2c1S(=O)(=O)Nc1ccc2nccc(N3CC(C)NC(C)C3)c2c1 (stereo not drawn)",
    "Val": "4.16%"
  },
  {
    "Compound": "FC(F)(F)c1cccc2c(NN=Cc3ccccc3)ccnc12",
    "Val": "2.21%"
  },
  {
    "Compound": "Cc1cccc(C(=O)Nc2ccnc(N3CCC(N(C)Cc4cccc(C#N)c4)CC3)c2)c1",
    "Val": "5.56%"
  },
  {
    "Compound": "O=C(NC1CCN(Cc2ccc3c(c2)OCCO3)CC1)c1ccc(-c2cccc(C(F)(F)F)c2)s1",
    "Val": "1.52%"
  },
  {
    "Compound": "Oc1ccc(CCNc2nc(NCc3cccc(OCc4cccc(F)c4)c3)nc(N3CCNCC3)n2)cc1",
    "Val": "0.71%"
  },
  {
    "Compound": "Cc1cccc2nc(-c3ccc(-c4cccc(CNCc5cccc(N)c5)c4)cc3)[nH]c12",
    "Val": "2.16%"
  },
  {
    "Compound": "Cc1ccc(C)c(NC(=O)CC2C(=O)N(c3ccccc3)C(=S)N2Cc2ccco2)c1 (stereo not drawn)",
    "Val": "5.73%"
  },
  {
    "Compound": "Cc1nnsc1C(=O)Nc1cccc(-c2csc(-c3nc4ccccc4[nH]3)c2)c1",
    "Val": "3.19%"
  },
  {
    "Compound": "CN1CCN(CC(=O)Nc2cccc(-c3ccc(-c4nc5cc(F)ccc5[nH]4)cc3)c2)CC1",
    "Val": "0.97%"
  },
  {
    "Compound": "FC(F)(F)c1ccc(-c2ccc(CNC3CCN(CCN4CCOCC4)CC3)cc2)cc1",
    "Val": "0.81%"
  },
  {
    "Compound": "CCc1nnc2sc(-c3cccc(NC(=O)c4ccc(C)c([N+](=O)[O-])c4)c3)nn12",
    "Val": "3.97%"
  },
  {
    "Compound": "CCCCCCCCc1c(C)nc(C)c(C#N)c1O",
    "Val": "6.51%"
  },
  {
    "Compound": "CN(CCC1CCN(C(=O)/C=C/c2ccc(Cl)c(Cl)c2)CC1)C1CCC(c2c[nH]c3ccccc23)CC1 (stereo not drawn)",
    "Val": "8.06%"
  },
  {
    "Compound": "CC(C)N1CCC(N(Cc2ccc(-c3ccc(C(F)(F)F)cc3)cc2)C(=O)Cn2c(SCc3cccc(F)c3F)cc(=O)c3c2CCC3)CC1",
    "Val": "-0.24%"
  },
  {
    "Compound": "CCN(CCNC(=O)Cn1c(C)cc2cc([N+](=O)[O-])ccc21)c1cccc(C)c1",
    "Val": "6.77%"
  },
  {
    "Compound": "COc1ccc2nccc([C@@H](O)CN3CCC(NC(=O)/C=C/c4ccc5cc(C)[nH]c5c4)CC3)c2c1",
    "Val": "3.03%"
  },
  {
    "Compound": "COc1ccccc1Cn1ccnc1SCC(=O)Nc1cccc(C(F)(F)F)c1",
    "Val": "0.38%"
  },
  {
    "Compound": "CCCCNC(=O)C1CCCN(C(=O)c2ccc(O)c(-c3ccc(Cl)c(Cl)c3)c2)C1 (stereo not drawn)",
    "Val": "1.16%"
  }
]
